The reported measurements were obtained from ChEMBL document CHEMBL4483862.

Tested on: Plasmodium berghei
experiment: Luciferase/luciferin-expressing antifolate-resistant parasites were used to infect a culture of HepG2 cells that were pre-incubated with compounds. Infected hepatocytes emit light due to the luciferase reaction. Assay results are presented as the percent inhibition of light emission compared to control. […]
Format: functional
test_context: sporozoite, read-out: LUCIFERASE INFECTION ASSAY - IC90
Provide the reported IC90 of each item.
Give bare numbers, in µM.

Previously resolved entries follow.
The value of IC90 measured for the molecule CC(=O)NCCC(=O)N(Cc1ccccc1)c1nc2c(C(C)C)cccc2s1 turned out to be 6.02

molecule O=C(Nc1ccccc1C(=O)Nc1nnc(C(F)(F)F)s1)c1ccccc1 , IC90 observed: 1.89

# IC90 of N#Cc1ccnc(N2CCN(C(=O)c3cccc(-n4cccc4)c3)CC2)c1 = 2.2

Next:
The molecule listed as O=C(NNC(=O)c1nn(-c2ccccc2)cc1O)c1ccc(-n2cccn2)cc1 shows IC90 equal to 4.26
